Tested system: Acid ceramidase (Homo sapiens)
Sequence (Q13510 whole entry): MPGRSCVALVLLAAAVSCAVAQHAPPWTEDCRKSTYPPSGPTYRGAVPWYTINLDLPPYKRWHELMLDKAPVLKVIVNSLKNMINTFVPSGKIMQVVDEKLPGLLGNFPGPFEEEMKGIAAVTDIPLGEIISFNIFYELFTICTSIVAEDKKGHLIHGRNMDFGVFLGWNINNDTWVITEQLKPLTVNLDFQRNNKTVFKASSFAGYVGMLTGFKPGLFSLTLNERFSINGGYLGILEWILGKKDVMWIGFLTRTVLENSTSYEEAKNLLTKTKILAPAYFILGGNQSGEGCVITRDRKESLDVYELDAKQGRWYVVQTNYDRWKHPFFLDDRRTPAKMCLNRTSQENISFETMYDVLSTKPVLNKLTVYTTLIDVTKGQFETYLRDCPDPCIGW
Recorded endpoint: pKi
As a rule, pKi stands for the negative log10 of the concentration, concentration in M.

The reported pKi of the compound CCCCCCCC/C=C\CCCCCCCC(=O)NCCO [OLEOYLETHANOLAMIDE] was 3.30
